- target.or.system: Neuronal acetylcholine receptor; alpha4/beta2 (Rattus norvegicus, UniProt P09483+P12390)
- Sequence (P09483 whole entry): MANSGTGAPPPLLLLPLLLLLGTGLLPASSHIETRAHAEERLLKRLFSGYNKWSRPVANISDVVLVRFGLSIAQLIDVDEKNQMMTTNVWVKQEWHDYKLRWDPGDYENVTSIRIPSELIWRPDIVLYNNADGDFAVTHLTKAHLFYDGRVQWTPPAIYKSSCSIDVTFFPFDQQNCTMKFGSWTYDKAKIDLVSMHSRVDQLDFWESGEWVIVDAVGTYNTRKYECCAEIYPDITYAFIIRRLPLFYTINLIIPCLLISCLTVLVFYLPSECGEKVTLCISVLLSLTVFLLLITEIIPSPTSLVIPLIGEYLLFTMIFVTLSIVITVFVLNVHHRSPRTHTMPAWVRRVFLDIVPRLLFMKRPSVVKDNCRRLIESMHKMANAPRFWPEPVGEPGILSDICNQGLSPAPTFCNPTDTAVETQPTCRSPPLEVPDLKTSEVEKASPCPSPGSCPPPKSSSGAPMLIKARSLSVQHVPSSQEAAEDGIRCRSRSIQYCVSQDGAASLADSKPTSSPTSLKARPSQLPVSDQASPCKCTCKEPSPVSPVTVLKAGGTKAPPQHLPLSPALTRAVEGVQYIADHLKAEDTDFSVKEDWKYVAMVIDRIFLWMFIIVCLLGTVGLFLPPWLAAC
- Sequence (P12390 whole entry): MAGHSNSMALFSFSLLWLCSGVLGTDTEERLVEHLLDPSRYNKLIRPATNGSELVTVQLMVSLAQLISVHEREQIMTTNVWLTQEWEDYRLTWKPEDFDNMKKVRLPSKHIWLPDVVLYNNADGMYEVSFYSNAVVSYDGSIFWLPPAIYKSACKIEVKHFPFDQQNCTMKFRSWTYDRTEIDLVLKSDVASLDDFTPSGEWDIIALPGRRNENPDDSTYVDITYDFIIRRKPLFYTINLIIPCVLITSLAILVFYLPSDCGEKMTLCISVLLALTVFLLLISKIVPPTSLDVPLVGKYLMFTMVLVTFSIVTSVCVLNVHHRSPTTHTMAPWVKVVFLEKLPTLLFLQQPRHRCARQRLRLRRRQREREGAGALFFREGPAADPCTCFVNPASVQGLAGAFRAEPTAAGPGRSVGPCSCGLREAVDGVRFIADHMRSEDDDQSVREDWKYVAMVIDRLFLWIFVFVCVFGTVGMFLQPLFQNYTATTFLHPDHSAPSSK
- protocol: Displacement of [3H] epibatidine from rat alpha4beta2 nAChR by beta scintillation counting
- Type: protein-complex assay
Field 'label' (enum: yes (1) / no (0)). Set to yes (1) when Ki is strictly under 600 pM; else no (0).

compound_structure=OCC[C@@H]1C[C@H]1c1cncc(OC[C@@H]2CCN2)c1 category="no (0)"
compound_structure=O=C(NC1CC1)OCC[C@H]1C[C@@H]1c1cncc(OC[C@@H]2CCN2)c1 category="no (0)"
compound_structure=O=C(OCC[C@H]1C[C@@H]1c1cncc(OC[C@@H]2CCN2)c1)N1CCCC1 category="no (0)"
compound_structure=CN(C)C(=O)OCC[C@H]1C[C@@H]1c1cncc(OC[C@@H]2CCN2)c1 category="yes (1)"
compound_structure=OCC[C@H]1C[C@@H]1c1cncc(OC[C@@H]2CCN2)c1 category="yes (1)"
compound_structure=COCC[C@H]1C[C@@H]1c1cncc(OC[C@@H]2CCN2)c1 category="yes (1)"
